- tested_on: ICE (interleukin-1β converting enzyme, Caspase-1) (Homo sapiens, UniProt P29466)
- Sequence (P29466 120-297 limits assumed): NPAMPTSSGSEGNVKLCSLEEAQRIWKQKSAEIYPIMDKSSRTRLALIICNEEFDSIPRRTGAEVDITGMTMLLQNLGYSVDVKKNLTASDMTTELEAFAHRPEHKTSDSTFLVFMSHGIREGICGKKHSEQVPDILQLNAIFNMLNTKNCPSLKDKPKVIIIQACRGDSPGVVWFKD
- Sequence (P29466 317-404 limits assumed): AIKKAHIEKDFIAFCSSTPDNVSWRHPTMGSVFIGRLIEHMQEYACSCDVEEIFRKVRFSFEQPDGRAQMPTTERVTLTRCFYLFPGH
parameter: Ki (µM)
Answers are plain numbers, in µM.

Guide cases for Ki, answers given:
{"columns": ["molecule", "parameter", "number"],
 "data": [
  ["O=C(O)CC(NC(=O)CN1CCc2ccccc2C1=O)C(=O)CNS(=O)(=O)Cc1ccccc1 (stereo not shown) [Example 5d]", "Ki", 27],
  ["CC(C)C(NC(=O)C(CCC(=O)O)NC(=O)OCc1ccccc1)C(=O)NC(CC(=O)O)C(=O)CNS(=O)(=O)CCc1ccccc1 (stereo not shown) [Example 3b]", "Ki", 0.013],
  ["O=C(O)CC(NC(=O)OCc1ccccc1)C(=O)CNS(=O)(=O)CCC1CCCCC1 (stereo not shown) [Example 2g]", "Ki", 33]
]}

Kindly consider the entry below.
Ki of CC(C)C(NC(=O)C(CCC(=O)O)NC(=O)OCc1ccccc1)C(=O)NC(CC(=O)O)C(=O)CNS(=O)(=O)CC12CCC(CC1=O)C2(C)C (stereo not shown) [Example 4f] , assay on ICE (interleukin-1β converting enzyme, Caspase-1) (Homo sapiens, UniProt P29466), is 0.00061

* * *

- tested_on: ICE (interleukin-1β converting enzyme, Caspase-1) (Homo sapiens, UniProt P29466)
- Sequence (P29466 120-297 limits assumed): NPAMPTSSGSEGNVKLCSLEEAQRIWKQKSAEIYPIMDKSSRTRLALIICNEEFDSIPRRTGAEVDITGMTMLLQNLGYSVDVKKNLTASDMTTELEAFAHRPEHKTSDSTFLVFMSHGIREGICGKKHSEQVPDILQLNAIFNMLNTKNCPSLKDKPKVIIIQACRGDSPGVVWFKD
- Sequence (P29466 317-404 limits assumed): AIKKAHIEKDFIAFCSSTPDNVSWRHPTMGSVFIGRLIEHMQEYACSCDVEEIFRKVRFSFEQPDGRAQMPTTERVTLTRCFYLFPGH
Please respond with reported Ki for every item in the list.
Numbers only, in nM.

Guide cases for Ki, answers given:
{"columns": ["compound", "tested_on", "Ki [nM]"],
 "data": [
  ["O=C(O)CC(NC(=O)OCc1ccccc1)C(=O)CNS(=O)(=O)CC1(F)c2ccccc2-c2ccccc21 (stereo not drawn)", "ICE (interleukin-1β converting enzyme, Caspase-1) (Homo sapiens, UniProt P29466)", 22000],
  ["CC(C)C(NC(=O)C(CCC(=O)O)NC(=O)CCc1ccccc1)C(=O)NC(CC(=O)O)C(=O)CNS(=O)(=O)CCc1ccccc1 (stereo not drawn)", "ICE (interleukin-1β converting enzyme, Caspase-1) (Homo sapiens, UniProt P29466)", 5.1]
]}

Kindly consider the entry below.
Recorded Ki (compound CC(NC(=O)C(NC(=O)OCc1ccccc1)C(C)C)C(=O)NC(CC(=O)O)C(=O)CNS(=O)(=O)CCc1ccccc1 (stereo not drawn) ): 7
